All figures here come from patent US8501446B2.

pKi: −log10 of the molar value.
Let's go through some recorded pKi values for ROCK I (AA 6-553) (Homo sapiens, UniProt Q13464) together.

{"COMPOUND": "CC(=O)N1[C@H](C)CN(c2cccc(-c3c[nH]c4ncc(NC(=O)c5cccc(F)c5)cc34)n2)C[C@@H]1C [Compound 169]", "pKi": "5.30 to 6.30"}
{"COMPOUND": "CCc1cnc(-c2c[nH]c3ncc(Cl)cc23)nc1N[C@@H](C)c1ccc(F)cc1 [Compound 386]", "pKi": "5.30 to 6.30"}
{"COMPOUND": "Cc1cc(C(F)(F)F)cc(-c2c[nH]c3ncc(Cl)cc23)n1 [Compound 196]", "pKi": "5.30 to 6.30"}

Exercise: Recall the reported pKi of CC(=O)N1[C@H](C)CN(c2cccc(-c3c[nH]c4ncc(O)cc34)n2)C[C@@H]1C [Compound 77] when tested on ROCK I (AA 6-553) (Homo sapiens, UniProt Q13464).
Sequence (Q13464 6-553, species assumed): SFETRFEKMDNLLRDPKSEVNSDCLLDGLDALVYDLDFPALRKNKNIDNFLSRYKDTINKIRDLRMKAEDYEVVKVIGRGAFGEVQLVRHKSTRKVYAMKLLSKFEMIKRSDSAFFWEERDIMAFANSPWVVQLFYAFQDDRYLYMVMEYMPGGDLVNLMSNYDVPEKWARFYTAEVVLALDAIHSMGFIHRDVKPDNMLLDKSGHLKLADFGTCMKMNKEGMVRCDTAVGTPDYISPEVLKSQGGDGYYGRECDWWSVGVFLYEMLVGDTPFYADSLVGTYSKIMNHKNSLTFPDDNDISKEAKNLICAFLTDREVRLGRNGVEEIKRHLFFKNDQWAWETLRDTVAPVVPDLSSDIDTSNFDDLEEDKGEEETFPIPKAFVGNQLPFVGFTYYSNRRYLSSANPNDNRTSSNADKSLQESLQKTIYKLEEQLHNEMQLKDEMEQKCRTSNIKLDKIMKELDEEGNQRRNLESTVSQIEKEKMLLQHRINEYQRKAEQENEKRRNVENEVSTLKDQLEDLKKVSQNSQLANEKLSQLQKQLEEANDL
Solution: 5.30 to 6.30

Exercise: Recall the reported pKi of CCC(=O)Nc1cnc2[nH]cc(-c3cccc(N4C[C@@H](C)N(C(C)=O)[C@@H](C)C4)n3)c2c1 [Compound 114] when tested on ROCK I (AA 6-553) (Homo sapiens, UniProt Q13464).
Solution: 5.30 to 6.30

Exercise: Recall the reported pKi of CC(=O)N1[C@H](C)CN(c2cccc(-c3c[nH]c4ncc(NC(=O)OCC(C)C)cc34)n2)C[C@@H]1C [Compound 63] when tested on ROCK I (AA 6-553) (Homo sapiens, UniProt Q13464).
Solution: > 6.30

Exercise: Recall the reported pKi of CNCCNC(=O)[C@H](C)Nc1nc(-c2c[nH]c3ncc(Cl)cc23)ncc1F [Compound 452] when tested on ROCK I (AA 6-553) (Homo sapiens, UniProt Q13464).
Solution: 5.30 to 6.30

Exercise: Recall the reported pKi of CC(=O)N1CCCN(c2cccc(-c3c[nH]c4ncc(C(=O)O)cc34)n2)CC1 [Compound 126] when tested on ROCK I (AA 6-553) (Homo sapiens, UniProt Q13464).
Solution: 5.30 to 6.30

----------
target: JAK2 (Homo sapiens, UniProt O60674); assay: JAK2 inhibition assay (radioactive enzyme assay, as for JAK3); assay type: biochemical; details: average Ki if more than one value determined
Sequence (O60674 whole entry, species assumed): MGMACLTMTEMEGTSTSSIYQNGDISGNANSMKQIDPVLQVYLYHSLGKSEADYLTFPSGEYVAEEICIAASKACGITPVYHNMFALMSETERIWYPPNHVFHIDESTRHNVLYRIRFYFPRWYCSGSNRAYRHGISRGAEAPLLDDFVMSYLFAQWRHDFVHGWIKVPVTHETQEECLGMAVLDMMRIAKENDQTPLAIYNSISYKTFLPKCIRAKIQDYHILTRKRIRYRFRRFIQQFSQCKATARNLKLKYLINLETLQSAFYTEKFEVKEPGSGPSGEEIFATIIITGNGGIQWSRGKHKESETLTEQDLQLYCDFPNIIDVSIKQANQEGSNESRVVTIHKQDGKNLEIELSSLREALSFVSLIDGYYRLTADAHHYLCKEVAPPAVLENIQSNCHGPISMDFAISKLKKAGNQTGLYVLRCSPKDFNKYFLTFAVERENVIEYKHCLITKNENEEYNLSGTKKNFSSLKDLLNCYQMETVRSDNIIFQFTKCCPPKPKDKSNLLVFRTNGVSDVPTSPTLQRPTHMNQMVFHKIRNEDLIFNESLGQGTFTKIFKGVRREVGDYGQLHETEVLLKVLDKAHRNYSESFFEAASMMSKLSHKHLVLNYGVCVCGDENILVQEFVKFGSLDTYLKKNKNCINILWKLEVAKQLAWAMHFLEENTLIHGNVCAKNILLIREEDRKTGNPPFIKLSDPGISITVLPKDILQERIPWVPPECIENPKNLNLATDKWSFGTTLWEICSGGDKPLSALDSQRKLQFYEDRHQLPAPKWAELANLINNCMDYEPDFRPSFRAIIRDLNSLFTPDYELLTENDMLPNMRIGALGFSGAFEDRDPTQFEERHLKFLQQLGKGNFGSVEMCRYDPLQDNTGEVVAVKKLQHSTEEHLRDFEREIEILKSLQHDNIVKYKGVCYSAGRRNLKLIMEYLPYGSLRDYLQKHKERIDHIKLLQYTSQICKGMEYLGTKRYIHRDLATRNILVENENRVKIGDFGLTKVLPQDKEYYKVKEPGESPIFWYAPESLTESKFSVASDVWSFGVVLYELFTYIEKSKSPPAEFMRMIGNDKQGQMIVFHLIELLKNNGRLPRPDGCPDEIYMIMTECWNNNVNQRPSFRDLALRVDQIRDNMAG
MEASUREMENT_NAME: Ki

{"STRUCTURE_NOTATION": "CC(=O)N1[C@H](C)CN(c2cc(C(=O)O)cc(-c3c[nH]c4ncc(Cl)cc34)n2)C[C@@H]1C", "MEAS_VALUE": "< 0.5 µM"}
{"STRUCTURE_NOTATION": "CC(=O)N1[C@H](C)CN(c2nc(-c3c[nH]c4ncc(Cl)cc34)ccc2C#N)C[C@@H]1C", "MEAS_VALUE": "< 0.5 µM"}
{"STRUCTURE_NOTATION": "CC(=O)N1[C@H](C)CN(c2cccc(-c3c[nH]c4ncc(NC(=O)C5CC5)cc34)n2)C[C@@H]1C", "MEAS_VALUE": "< 0.5 µM"}

Turning now to a further record.
Exercise: Recall the reported Ki of "CC(=O)NCCNC(=O)[C@H](C)Nc1nc(-c2c[nH]c3ncc(Cl)cc23)ncc1F" when tested on JAK2 (Homo sapiens, UniProt O60674).
Solution: 0.5 to 5 µM
